# conditionsUsed: limosilactobacillus reuteri cf48-3a, 12 h, 2 µM
# Description: The drug is tested on Lactobacillus reuteri CF48-3A strain: BEI HM-102 for biotransformation. The drug concentrations were measured before and after a 12-h incubation by liquid-chromatography-coupled mass spectrometry (LC–MS)
parameterMeasured: Bacterial Biotransformation

Examples from the recorded data:
Prompt: Which Bacterial Biotransformation value belongs to Nc1nc(NC2CC2)c2ncn([C@H]3C=C[C@@H](CO)C3)c2n1.Nc1nc(NC2CC2)c2ncn([C@H]3C=C[C@@H](CO)C3)c2n1.O=S(=O)(O)O [ABACAVIR SULFATE] ?
Response: Compound NOT metabolized

Prompt: And CC(C)NCC(O)c1ccc(NS(C)(=O)=O)cc1 (stereo not given) ?
Response: Compound NOT metabolized

Prompt: And OCCN1CCN(CCCN2c3ccccc3Sc3ccc(C(F)(F)F)cc32)CC1 ?
Response: Compound metabolized

Prompt: And COc1ccnc(C[S+]([O-])c2nc3ccc(OC(F)F)cc3[nH]2)c1OC (stereo not given) ?
Response: Compound metabolized

***
Prompt: Which Bacterial Biotransformation value belongs to O=C(CCCN1CCC(O)(c2ccc(Cl)cc2)CC1)c1ccc(F)cc1 ?
Response: Compound NOT metabolized

Prompt: And CC(=O)O[C@H]1C(=O)[C@@]2(C)[C@H]([C@H](OC(=O)c3ccccc3)[C@]3(O)C[C@H](OC(=O)[C@H](O)[C@@H](NC(=O)c4ccccc4)c4ccccc4)C(C)=C1C3(C)C)[C@]1(OC(C)=O)CO[C@@H]1C[C@@H]2O ?
Response: Compound NOT metabolized

Prompt: And CN1[C@@H]2CC[C@H]1C[C@@H](OC(=O)c1c[nH]c3ccccc13)C2 ?
Response: Compound NOT metabolized

Prompt: And OC(c1cc(C(F)(F)F)nc2c(C(F)(F)F)cccc12)C1CCCCN1 (stereo not given) ?
Response: Compound NOT metabolized
